meta.source: PubChem BioAssay (EPA / NIEHS)

assay: STM_H9_OrnithineISnorm_perc: Stemina devTOX quickPredict H9 human embryonic stem cell (hESC)-based Assay for Ornithine (ORN) Metabolite Biomarker, Normalized (AID 2283712);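 further: ornithine released into spent medium during last day measured by mass spectrometry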
The source made the active and inactive calls. How the source made its calls: active means hit-call score of the fitted dose curve at least 0.9, where 1 is the maximum; inactive means score below 0.9.
Thanks in advance; please answer with one of these: active, inactive

Nn1cnnc1 ... active
CC1=C2C[C@H]3[C@@H](CC=C4C[C@@H](O)CC[C@@]43C)[C@@H]2CC[C@]12O[C@@H]1C[C@H](C)CN[C@H]1[C@H]2C ... inactive
Oc1ccc(C(c2ccc(O)cc2)(C(F)(F)F)C(F)(F)F)cc1 ... inactive
O=NN(c1ccccc1)c1ccccc1 ... inactive
CCOCCOC(C)=O ... inactive

Enquiry: Hi team, can someone confirm the assay call for CCC(=O)O[C@H]1CC[C@H]2[C@@H]3CCC4=CC(=O)CC[C@]4(C)[C@H]3CC[C@]12C ?
Return: active

Enquiry: Any idea what this test logged for CCCCCCOC(=O)c1ccccc1C(=O)OCCCCCC ?
Return: inactive

Enquiry: Look up the recorded call for CCCCCCCCCC[N+](C)(C)CCCCCCCCCC in this test.
Return: active

Enquiry: Query: recorded result category for CCCCCCCCOC(=O)c1ccccc1C(=O)OCCCCCCCC in this test
Return: inactive

----------
assay: APR_HepG2_MicrotubuleCSK_72hr: Apredica 72-hour HepG2 Assay for Microtubule CSK Stabilty (AID 2282919); conditions: HepG2 microtubule cytoskeleton, high-content imaging, actives raise or lower the signal
Activity calls are given as the source filed them. How the source made its calls: active means hit-call score of the fitted dose curve at least 0.9, where 1 is the maximum; inactive means score below 0.9.
Hello, when you answer, please use one of the following outcomes: 1 (active), -1 (inactive)

Record excerpt, results attached:
CN(C)CCO ... -1
Cc1cccc(C)c1N ... -1
C[C@]12CCC(=O)C=C1CC[C@@H]1[C@@H]2CC[C@]2(C)C(=O)CC[C@@H]12 ... -1
NS(=O)(=O)C(F)(F)C(F)(F)C(F)(F)C(F)(F)C(F)(F)C(F)(F)C(F)(F)C(F)(F)F ... -1
CCC(C)(CC)c1cc(NC(=O)c2c(OC)cccc2OC)on1 ... -1
Oc1ccc(Cl)cc1Cl ... -1

Enquiry: Check the results log: what was the call for Cc1ccccc1O ?
Return: -1

Enquiry: Tell me the recorded outcome of this test for Clc1ccc(Cl)cc1 .
Return: -1

Enquiry: Field: outcome | Entry: CC(C)(O)C(=O)Nc1ccc([N+](=O)[O-])c(C(F)(F)F)c1
Return: -1

Enquiry: Could you kindly confirm the outcome this assay logged for CCCCCCOC(=O)c1ccccc1C(=O)OCCCCCC ?
Return: 1

----------
read-out: Alkaline Phosphatase, Placental (ALPP) gene, ALPP (gene 250); experiment: LTEA_HepaRG_ALPP: Life Technologies and Expression Analysis (LTEA) Assay for Alkaline Phosphatase, Placental (ALPP) gene using HepaRG (AID 2283468); conditions: mRNA level, 48 h; actives raise or lower the signal
Calls of active or inactive are those of the source. The calls were made as follows: active = hit-call score of the fitted dose curve at least 0.9, where 1 is the maximum; inactive = score below 0.9.
Would you mind answering with one of these outcomes? true = active, false = inactive

CCCCCCOC(=O)c1ccccc1C(=O)OCCCCCC ... false
C=CC(=O)NCNC(=O)C=C ... false
ClC(Cl)=C(c1ccc(Cl)cc1)c1ccc(Cl)cc1 ... false
CCOP(=S)(OCC)SCSC(C)(C)C ... false
Cc1cc(O)ccc1Cl ... false

Enquiry: Entry Nn1cnnc1 : call = ?
Return: false

Enquiry: Please indicate how the test categorized CO/C=C(/C(=O)OC)c1ccccc1COc1cccc(C(F)(F)F)n1 .
Return: true

Enquiry: Assay result, entry CCC(=O)O[C@H]1CC[C@H]2[C@@H]3CCC4=CC(=O)CC[C@]4(C)[C@H]3CC[C@]12C — outcome?
Return: false

Enquiry: Which result was noted for this compound in the test: CC(C)(c1ccccc1)c1ccc(O)cc1
Return: false

Enquiry: What is the recorded call for this compound in the test? Cc1ccccc1[N+](=O)[O-]
Return: false

Enquiry: // param item: CC(c1ccc(O)cc1)(c1ccc(O)cc1)c1ccc(O)cc1 ; yields the recorded call
Return: true

Enquiry: I'd appreciate the recorded outcome for COc1ccc(O)c(C(C)(C)C)c1 from this test.
Return: false

Enquiry: Which outcome was entered for the compound NS(=O)(=O)C(F)(F)C(F)(F)C(F)(F)C(F)(F)C(F)(F)C(F)(F)C(F)(F)C(F)(F)F in this test?
Return: false

----------
test: BSK_hDFCGF_Proliferation: Cell Proliferation Assessment in the BioMAP Diversity Plus: hDFCGF Assay (AID 2283059); settings: primary human foreskin fibroblasts;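 further: curves fitted for both rise and fall of signal versus DMSO baseline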
Calls of active or inactive are those of the source. Rule for the calls: active = hit-call score of the fitted dose curve at least 0.9, where 1 is the maximum; inactive = score below 0.9.
Write down the outcome that applies. Available outcomes: active, inactive

CO/C=C(/C(=O)OC)c1ccccc1COc1cccc(C(F)(F)F)n1 ... active
CCCCCCCCOC(=O)c1ccccc1C(=O)OCCCCCCCC ... inactive
CCCCCCCCCC[N+](C)(C)CCCCCCCCCC ... active

Enquiry: Recorded test outcome, item O=C(NC(=O)c1c(F)cccc1F)Nc1cc(Cl)c(OC(F)(F)C(F)F)c(Cl)c1
Return: inactive

Enquiry: What did the test return for CC#Cc1cc(C)nc(Nc2ccccc2)n1 ?
Return: inactive

Enquiry: Look up the recorded call for Sc1ccccc1 in this test.
Return: inactive

Enquiry: Status in this test for c1ccc(-c2ccccc2)cc1 ?
Return: inactive

Enquiry: Query: recorded result category for Cc1ccccc1O in this test
Return: inactive

Enquiry: // outcome(item) with item = CCNc1nc(NC(C)C)nc(SC)n1
Return: inactive

Enquiry: Hello, I am checking results. What call was entered for O=NN(c1ccccc1)c1ccccc1 ?
Return: inactive

Enquiry: Hey, what did the test say about Cc1cccc([N+](=O)[O-])c1 ?
Return: inactive

Enquiry: Per the assay record, what outcome was assigned to Cc1ccccc1[N+](=O)[O-] ?
Return: inactive

----------
read-out: Decorin, DCN (gene 1634); experiment: BSK_MyoF_Decorin: BioMAP Diversity Plus: MyoF Assay for Decorin Biomarker Activity (AID 2284265); conditions: primary human lung fibroblasts
Active and inactive are the calls of the source. Rule for the calls: active = hit-call score of the fitted dose curve at least 0.9, where 1 is the maximum; inactive = score below 0.9.
Write down one outcome, taken from class 1 for active, class 0 for inactive

Enquiry: Lab log entry: Oc1c(Cl)c(Cl)c(Cl)c(Cl)c1Cl — outcome as called in the assay?
Return: class 1

Enquiry: Look up the recorded call for O=C(O)C(F)(F)C(F)(F)C(F)(F)C(F)(F)C(F)(F)F in this test.
Return: class 0

Enquiry: // param item: O=C(O)C(F)(F)C(F)(F)C(F)(F)C(F)(F)C(F)(F)C(F)(F)C(F)(F)C(F)(F)F ; yields the recorded call
Return: class 0

Enquiry: Could you please tell me the result logged for Sc1ccccc1 in this assay?
Return: class 0

----------
assay: BSK_SAg_SRB: Viability Assessment in the BioMAP Diversity Plus: SAg Assay (AID 2283096); settings: primary human HUVEC with PBMC;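 further: cells read one day after compound addition; hits may be either gain or loss of signal compared with DMSO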
Active and inactive are the calls of the source. How the source made its calls: active means hit-call score of the fitted dose curve at least 0.9, where 1 is the maximum; inactive means score below 0.9.
# valid calls are active, inactive; nothing else

Worked examples, 4 molecules total:
Cc1cc(O)ccc1Cl ... inactive
ClC1=C(Cl)[C@]2(Cl)[C@@H]3[C@@H](Cl)[C@H]4O[C@H]4[C@@H]3C1(Cl)C2(Cl)Cl ... active
O=NN(c1ccccc1)c1ccccc1 ... inactive
CCOCCOC(C)=O ... inactive

Enquiry: Status in this test for CC(C)(O)C(=O)Nc1ccc([N+](=O)[O-])c(C(F)(F)F)c1 ?
Return: inactive

Enquiry: Field: outcome | Entry: Clc1ccc(C(c2ccccc2Cl)C(Cl)(Cl)Cl)cc1 (stereo not given)
Return: active

Enquiry: What did the test return for COS(=O)(=O)OC ?
Return: inactive

Enquiry: State the result this test recorded for CCC(C)(CC)c1cc(NC(=O)c2c(OC)cccc2OC)on1 .
Return: inactive

Enquiry: Which outcome was assigned to Clc1ccc(Cl)cc1 in this test?
Return: inactive

Enquiry: Give the logged outcome of this assay for the following molecule: CC(C)C(=O)OCC(C)(C)C(OC(=O)C(C)C)C(C)C (stereo not given)
Return: inactive

Enquiry: Hi team, can someone confirm the assay call for C1CC2OC2CC1C1CO1 (stereo not given) ?
Return: inactive

Enquiry: // param item: CC(c1ccc(O)cc1)(c1ccc(O)cc1)c1ccc(O)cc1 ; yields the recorded call
Return: active

Enquiry: Which outcome was entered for the molecule Cc1cccc(C)c1N in this test?
Return: inactive

Enquiry: How was CCCCCCCCCC[N+](C)(C)CCCCCCCCCC classified in this test?
Return: active

Enquiry: // param item: CC1=C2C[C@H]3[C@@H](CC=C4C[C@@H](O)CC[C@@]43C)[C@@H]2CC[C@]12O[C@@H]1C[C@H](C)CN[C@H]1[C@H]2C ; yields the recorded call
Return: inactive

Enquiry: Record request — test call for O=C(NC(=O)c1c(F)cccc1F)Nc1cc(Cl)c(OC(F)(F)C(F)F)c(Cl)c1
Return: inactive

Enquiry: Identify the outcome logged in this assay for the molecule shown: ClC1=C(Cl)[C@]2(Cl)[C@@H]3[C@@H]4C[C@@H]([C@H]5O[C@@H]45)[C@@H]3[C@@]1(Cl)C2(Cl)Cl
Return: active

Enquiry: Which outcome did this test record for the molecule CCC(C)c1cc([N+](=O)[O-])cc([N+](=O)[O-])c1O (stereo not given) ?
Return: active

Enquiry: Tell me the recorded outcome of this test for CCOP(=S)(OCC)SCSC(C)(C)C .
Return: inactive

Enquiry: Please share the test call associated with CCCCCCCCCc1ccc(O)cc1 .
Return: active

Enquiry: Which outcome did this test record for the molecule CCOC(=O)C(O)(c1ccc(Cl)cc1)c1ccc(Cl)cc1 ?
Return: active

Enquiry: For Clc1ccc(C(Cl)(Cl)Cl)cc1 , which call appears in the assay record?
Return: inactive

Enquiry: Write down the call the test reported for this molecule. Item: ClC(Cl)=C(c1ccc(Cl)cc1)c1ccc(Cl)cc1
Return: active

Enquiry: Test call for this molecule, please: O=C(N[C@H]1CN2CCC1CC2)c1cc2ccoc2cn1
Return: inactive

Enquiry: Outcome? CC(C)(c1ccccc1)c1ccc(O)cc1
Return: active
